Record form. Attribute: log10 Ki. Fill in for each entry.
target.or.system: Transient receptor potential cation channel subfamily V member 1 (Homo sapiens)
assay.details: Antagonist activity at human TRPV1 heterologously expressed in CHO cells assessed as inhibition of capsaicin-induced activation by FLIPR assay
Assay type: cell-based
cond: read-out: Ki
Reminder: these figures are log10 of reported Ki, in nM before transformation.

CC(C(=O)NCc1ccc(C(F)(F)F)cc1-c1ccc(F)c(Cl)c1)c1ccc(NS(C)(=O)=O)c(F)c1 (configuration not stated): -0.22

// each compound listed below needs its log10 Ki
1. CC(C)CCOc1cc(C(F)(F)F)ccc1CNC(=O)C(C)c1ccc(NS(C)(=O)=O)c(F)c1 (configuration not stated)
2. CC(C(=O)NCc1ccc(C(F)(F)F)cc1C1CCCCC1)c1ccc(NS(C)(=O)=O)c(F)c1 (configuration not stated)
3. CCCCCCSc1cc(C(F)(F)F)ccc1CNC(=O)C(C)c1ccc(NS(C)(=O)=O)c(F)c1 (configuration not stated)
4. C[C@@H](C(=O)NCc1ccc(C(F)(F)F)cc1SC1CCCCC1)c1ccc(NS(C)(=O)=O)c(F)c1
5. CC(C(=O)NCc1ccc(C(F)(F)F)cc1N1CCC(Cc2cccc(F)c2)CC1)c1ccc(NS(C)(=O)=O)c(F)c1 (configuration not stated)
6. CC(C(=O)NCc1ccc(C(F)(F)F)cc1N1CCN(c2cccc(C(F)(F)F)c2)CC1)c1ccc(NS(C)(=O)=O)c(F)c1 (configuration not stated)

-0.30
-0.22
0.26
1.14
-0.40
0.59

// each compound listed below needs its log10 Ki
1. CCCCCSc1cc(C(F)(F)F)ccc1CNC(=O)C(C)c1ccc(NS(C)(=O)=O)c(F)c1 (configuration not stated)
2. C[C@H](C(=O)NCc1ccc(C(F)(F)F)cc1SC1CCCCC1)c1ccc(NS(C)(=O)=O)c(F)c1
3. CCCCN(C)c1cc(C(F)(F)F)ccc1CNC(=O)C(C)c1ccc(NS(C)(=O)=O)c(F)c1 (configuration not stated)
4. CC(C(=O)NCc1ccc(C(F)(F)F)cc1SC1CCCC1)c1ccc(NS(C)(=O)=O)c(F)c1 (configuration not stated)
5. CCCCCCc1cc(C(F)(F)F)ccc1CNC(=O)C(C)c1ccc(NS(C)(=O)=O)c(F)c1 (configuration not stated)
6. CC(C(=O)NCc1ccc(C(F)(F)F)nc1-c1ccc(F)c(Cl)c1)c1ccc(NS(C)(=O)=O)c(F)c1 (configuration not stated)
7. CC(C(=O)NCc1ccc(C(F)(F)F)cc1SCc1ccco1)c1ccc(NS(C)(=O)=O)c(F)c1 (configuration not stated)
8. CC(C(=O)NCc1ccc(C(F)(F)F)cc1SCc1ccccc1)c1ccc(NS(C)(=O)=O)c(F)c1 (configuration not stated)

[0.36, -0.52, 0.08, -0.52, -0.40, -0.22, 0.51, -0.30]

// each compound listed below needs its log10 Ki
1. CC(C(=O)NCc1ccc(C(F)(F)F)cc1-c1cccc(Cl)c1)c1ccc(NS(C)(=O)=O)c(F)c1 (configuration not stated)
2. CC1CCN(c2cc(C(F)(F)F)ccc2CNC(=O)C(C)c2ccc(NS(C)(=O)=O)c(F)c2)CC1 (configuration not stated)

1. 0.00
2. -0.05

----------
target.or.system: Transient receptor potential cation channel subfamily V member 1 (Homo sapiens, UniProt Q8NER1)
Sequence (Q8NER1 whole entry): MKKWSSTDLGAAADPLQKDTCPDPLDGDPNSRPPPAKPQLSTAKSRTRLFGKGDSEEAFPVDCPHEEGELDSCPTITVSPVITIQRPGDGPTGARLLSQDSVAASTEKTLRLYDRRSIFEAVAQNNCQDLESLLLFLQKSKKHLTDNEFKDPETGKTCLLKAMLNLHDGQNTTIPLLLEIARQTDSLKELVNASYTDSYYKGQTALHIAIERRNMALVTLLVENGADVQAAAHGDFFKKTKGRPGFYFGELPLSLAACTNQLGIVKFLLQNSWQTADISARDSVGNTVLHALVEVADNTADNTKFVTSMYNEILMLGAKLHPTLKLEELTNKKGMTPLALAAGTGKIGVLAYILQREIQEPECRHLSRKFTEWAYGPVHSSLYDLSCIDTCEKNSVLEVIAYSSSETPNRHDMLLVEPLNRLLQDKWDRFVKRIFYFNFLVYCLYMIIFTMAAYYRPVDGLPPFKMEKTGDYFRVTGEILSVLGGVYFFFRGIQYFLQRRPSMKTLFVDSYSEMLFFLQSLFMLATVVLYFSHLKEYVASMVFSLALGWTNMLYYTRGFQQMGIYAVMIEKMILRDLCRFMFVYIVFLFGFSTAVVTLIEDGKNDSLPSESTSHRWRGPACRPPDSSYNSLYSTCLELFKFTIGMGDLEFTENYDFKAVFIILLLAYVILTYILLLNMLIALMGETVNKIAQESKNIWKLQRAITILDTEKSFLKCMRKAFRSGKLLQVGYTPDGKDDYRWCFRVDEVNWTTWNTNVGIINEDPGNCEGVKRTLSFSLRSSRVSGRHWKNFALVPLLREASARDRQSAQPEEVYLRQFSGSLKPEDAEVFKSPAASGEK
assay.details: Antagonist activity at human TRPV1 heterologously expressed in CHO cells assessed as inhibition of NADA-induced activation by FLIPR assay
Format: cell-based
recorded.metric: pKi
Answers are plain numbers, as −log10 of the molar value.

C[C@H](C(=O)NCc1ccc(C(F)(F)F)cc1SC1CCCCC1)c1ccc(NS(C)(=O)=O)c(F)c1: 10.52

Please turn your attention to the following entry.
Complete the entry with pKi for CC(C(=O)NCc1ccc(C(F)(F)F)cc1SC1CCCC1)c1ccc(NS(C)(=O)=O)c(F)c1 (configuration not stated)
10.52
